- MEASUREMENT NOTES: soluble fraction after stress (log2 fold change); higher = more stays soluble; pooled small domains, quantitative proteomics
- CONDITION SUMMARY: stress: 50 degC
QUANTITY: soluble fraction (log2)

// below: answered sequences
>>> reported_value("HMSKEEAIQAMKEGKKVTHRFFSSDEWMTIENGFLLLEDGVRISLEDFFNFRSDSLWDNGYELYNPH")
-0.162
>>> reported_value("HMDSIGTQIRKLREEAEMPLRKLSALLDIDQSTLSKIERDERRANTQMIEQIAKIFKVNKEQLLVA")
-0.926

Kindly consider the entry below.
Item HMAMNLQETVLMQLRDLILRGTFEPGQRLSEQPLAERLKASRTPVRSALVTLEQEGLIEASETGKYLVRQ has what recorded soluble fraction (log2)?
-0.421

---

- MEASUREMENT NOTES: soluble fraction after stress (log2 fold change); higher = more stays soluble; pooled small domains, quantitative proteomics
- CONDITION SUMMARY: stress: 50 degC
In this section, each of the sequences is paired with its reported soluble fraction (log2).

>>> reported_value("HMQEKLELIIPVSSIGKRADVAIQDLLSSYSRAKIQEWIKSGFILLESKKISPKDIFMGGERVFIDIQQDE")
-1.41

Item HMSSETTVPAVVGIKEDKARQLASEQGLRLRVKSREESADVEEGIIISQDPNSNTKVKKGDEIEVVVS has what recorded soluble fraction (log2)?
0.254

What about this sequence? HMNTVSVGNLGLSVRAVNALKQAGIDTYDKLQELSWEELLLIPKLGQVTAAEIYRFITSYKKG
-0.552

---

- MEASUREMENT NOTES: soluble fraction after stress (log2 fold change); higher = more stays soluble; pooled small domains, quantitative proteomics
- CONDITION SUMMARY: stress: 50 degC
QUANTITY: soluble fraction (log2)
Give the figure by itself; no unit, no explanation.

// below: answered sequences
>>> reported_value("HMKPFVVVPIDQVRVGMFIQLDLGWMQHPFPVGSFRVASEAQIDTLRSLDLESVRYLPAKSDPAFQQP")
-2.1
>>> reported_value("HMNMMESNLFAVYDNDDIVKTLRQGAMEIDSLIRLMGKSSAEVLEKLTTMELQGIITRSGNIIALNN")
-0.064
>>> reported_value("HMASVDDILDRFKQAAKVTTDADLAKVLGLSRQSIAAARLRAKIPASWFPKMSSLFNISTEWLYRG")
-0.628

Item HMKALHEEIAEKIQEQILRSNLAPGDKLDTELELAARYGVSRSTIRQALIQLESAGLIDRLHGRGTFVAD has what recorded soluble fraction (log2)?
0.425

What about this sequence? HMDILPRMVASEMRAVGVPPERMTREEKGTVIRNLMNAGIHQMKGAVVEIARQLHLSEPTVYRYIKREKG
-0.327

---

In this section, each of the sequences is paired with its reported soluble fraction (log2).
- MEASUREMENT NOTES: soluble fraction after stress (log2 fold change); higher = more stays soluble; pooled small domains, quantitative proteomics
- CONDITION SUMMARY: stress: 50 degC
Give the figure by itself; no unit, no explanation.

// below: answered sequences
>>> reported_value("HMLESPVEAIIRQIKQLITNGKLKPGDRLPAERLLAENFGVGRGYVREAIMKLEFFGLLKTSPQSGTYVAG")
-0.748
>>> reported_value("HMEDTVNVPIQINGKLRHVIQVQIGTSEEEIQKIALSEEQVKKFTDGHEILKVMVPKGKLVSIVI")
-0.129
>>> reported_value("HMGQVSEAGELEVAADRVIAANPEAVTKYKSGNENILQFLVGQMMKETKGAANPQVAAEILRKKIV")
0.254
>>> reported_value("HMPNPSAGRVHIDALLPFDRVEVTDMQGSLLLDHSFSPRRAVDLDLNARGTLLYTLWSKGHLLGKGRVVR")
0.0169
>>> reported_value("HMNMANFARIRLILELHDRGMSQDEISRSRHMSRSTITTVLRTARKKGITYAGIRKLDDAALQKLFFPDR")
-3.88
>>> reported_value("HMTPSTVQVHVAGAVKNPGVYVLLENARNIDAITAAGGATSEADLERINLSEFIRDGQRVYVPYKGDPI")
0.269

Item HMGVQKGKDNALAVQQWIAERDATGDFGEYERRGIINRSALFDELGIPRSSMGSNDQIRQMIEAADVRWF has what recorded soluble fraction (log2)?
-0.189

Values were extracted from the domain aggregation screens of Martell et al. (2025).
